Answer each item with its documented IC50.
# Tested on: U-251
# protocol.notes: Cytotoxicity against human U251 cells by MTT assay
# Format: functional, cell-based
The reply should be a number in µM, with the unit left off.

Give a short answer stating reported IC50 for CC(C)=CCC/C(C)=C/Cc1c(O)c(CC=C(C)C)c2c(c1O)C(=O)C1=C[C@@H]3C[C@@H]4C(C)(C)O[C@@](C/C=C(/C)C(=O)OCCCCN5CCOCC5)(C3=O)[C@@]14O2 .
21.6

Answer with the recorded IC50 of CCN(CC)CCOC(=O)/C(C)=C\C[C@@]12OC(C)(C)[C@H]3C[C@@H](C=C4C(=O)c5c(O)c(C/C=C(\C)CCC=C(C)C)c(O)c(CC=C(C)C)c5O[C@]431)C2=O only.
2.65

State, in one line, measured IC50 of CCN(CC)CCCCOC(=O)/C(C)=C\C[C@]12OC(C)(C)[C@@H]3C[C@H](C=C4C(=O)c5c(O)c(C/C=C(\C)CCC=C(C)C)c(O)c(CC=C(C)C)c5O[C@@]431)C2=O
4.62

Provide IC50 value for the following compound: CC(C)=CCC/C(C)=C/Cc1c(O)c(CC=C(C)C)c2c(c1O)C(=O)C1=C[C@@H]3C[C@H]4C(C)(C)O[C@@](C/C=C(/C)C(=O)OCCCCN5CCN(CCO)CC5)(C3=O)[C@@]14O2
1.46

Quickly give me recorded IC50 for CC(C)=CCC/C(C)=C/Cc1c(O)c(CC=C(C)C)c2c(c1O)C(=O)C1=C[C@H]3C[C@H]4C(C)(C)O[C@](C/C=C(/C)C(=O)OCCN5CCOCC5)(C3=O)[C@]14O2
4.93

Consider the compound CC(C)=CCC/C(C)=C/Cc1c(O)c(CC=C(C)C)c2c(c1O)C(=O)C1=C[C@@H]3C[C@@H]4C(C)(C)O[C@@](C/C=C(/C)C(=O)OCCN5CCN(C)CC5)(C3=O)[C@@]14O2 . State its measured IC50.
3.45

Given the compound CC(C)=CCC/C(C)=C/Cc1c(O)c(CC=C(C)C)c2c(c1O)C(=O)C1=C[C@@H]3C[C@@H]4C(C)(C)O[C@@](C/C=C(/C)C(=O)OCCCN5CCN(C)CC5)(C3=O)[C@@]14O2 , write its reported IC50.
1.13

Read off the recorded IC50 for CC(C)=CCC/C(C)=C/Cc1c(O)c(CC=C(C)C)c2c(c1O)C(=O)C1=C[C@@H]3C[C@@H]4C(C)(C)O[C@@](C/C=C(/C)C(=O)OCCCCN5CCCCC5)(C3=O)[C@@]14O2
2.78

Give recorded IC50. CCN(CC)CCCOC(=O)/C(C)=C\C[C@@]12OC(C)(C)[C@H]3C[C@@H](C=C4C(=O)c5c(O)c(C/C=C(\C)CCC=C(C)C)c(O)c(CC=C(C)C)c5O[C@]431)C2=O
2.05

Identify measured IC50 corresponding to CC(C)=CCC/C(C)=C/Cc1c(O)c(CC=C(C)C)c2c(c1O)C(=O)C1=C[C@@H]3C[C@@H]4C(C)(C)O[C@@](C/C=C(/C)C(=O)OCCCCN5CCN(C)CC5)(C3=O)[C@@]14O2
17.5

---

# protocol.notes: Cytotoxicity against human PANC1 cells by MTT assay
# Assay type: functional, cell-based
# run.conditions: PANC-1
recorded.endpoint: pIC50
Please note pIC50 is a logarithmic value: minus log10 of concentration in mol/L. Answer with that number alone.

Look up and state reported pIC50 for CC(C)=CCC/C(C)=C/Cc1c(O)c(CC=C(C)C)c2c(c1O)C(=O)C1=C[C@H]3C[C@H]4C(C)(C)O[C@](C/C=C(/C)C(=O)OCCCN5CCOCC5)(C3=O)[C@]14O2
5.63

Tell us which pIC50 value is on record for CC(C)=CCC/C(C)=C/Cc1c(O)c(CC=C(C)C)c2c(c1O)C(=O)C1=C[C@H]3C[C@H]4C(C)(C)O[C@](C/C=C(/C)C(=O)OCCN5CCOCC5)(C3=O)[C@]14O2
5.72

Please report the measured pIC50 for CC(C)=CCC/C(C)=C/Cc1c(O)c(CC=C(C)C)c2c(c1O)C(=O)C1=C[C@@H]3C[C@H]4C(C)(C)O[C@@](C/C=C(/C)C(=O)OCCCCN5CCN(CCO)CC5)(C3=O)[C@@]14O2
6.10

---

# protocol.notes: Cytotoxicity against human PANC1 cells by MTT assay
# Type: functional, cell-based
# run.conditions: PANC-1
Give IC50 for every item shown.
Record the value in nM, omitting the unit from your answer.

// Input: CC(C)=CCC/C(C)=C/Cc1c(O)c(CC=C(C)C)c2c(c1O)C(=O)C1=C[C@@H]3C[C@@H]4C(C)(C)O[C@@](C/C=C(/C)C(=O)OCCCCN5CCOCC5)(C3=O)[C@@]14O2 . Output its IC50 only.
18600

Give IC50 for the following compound: CC(C)=CCC/C(C)=C/Cc1c(O)c(CC=C(C)C)c2c(c1O)C(=O)C1=C[C@H]3C[C@H]4C(C)(C)O[C@](C/C=C(/C)C(=O)OCCN5CCCCC5)(C3=O)[C@]14O2
1890

Give me measured IC50, please, for this compound: CC(C)=CCC/C(C)=C/Cc1c(O)c(CC=C(C)C)c2c(c1O)C(=O)C1=C[C@H]3C[C@H]4C(C)(C)O[C@](C/C=C(/C)C(=O)OCCCN5CCN(CCO)CC5)(C3=O)[C@]14O2
2520

Please list IC50 recorded for the compound CC(C)=CCC/C(C)=C/Cc1c(O)c(CC=C(C)C)c2c(c1O)C(=O)C1=C[C@@H]3C[C@@H]4C(C)(C)O[C@@](C/C=C(/C)C(=O)OCCN5CCN(C)CC5)(C3=O)[C@@]14O2
2610

Could you please provide reported IC50 for CC(C)=CCC/C(C)=C/Cc1c(O)c(CC=C(C)C)c2c(c1O)C(=O)C1=C[C@@H]3C[C@@H]4C(C)(C)O[C@@](C/C=C(/C)C(=O)OCCCN5CCN(C)CC5)(C3=O)[C@@]14O2 ? Thanks!
450

Check the records and state IC50 for CC(C)=CCC/C(C)=C/Cc1c(O)c(CC=C(C)C)c2c(c1O)C(=O)C1=C[C@@H]3C[C@@H]4C(C)(C)O[C@@](C/C=C(/C)C(=O)OCCCCN5CCN(C)CC5)(C3=O)[C@@]14O2
7570

Supply reported IC50 belonging to this compound: CCN(CC)CCOC(=O)/C(C)=C\C[C@@]12OC(C)(C)[C@H]3C[C@@H](C=C4C(=O)c5c(O)c(C/C=C(\C)CCC=C(C)C)c(O)c(CC=C(C)C)c5O[C@]431)C2=O
2860

Find the measured IC50 of CC(C)=CCC/C(C)=C/Cc1c(O)c(CC=C(C)C)c2c(c1O)C(=O)C1=C[C@@H]3C[C@@H]4C(C)(C)O[C@@](C/C=C(/C)C(=O)OCCCCN5CCCCC5)(C3=O)[C@@]14O2 and report it.
4430

Quick one: give measured IC50 for CCN(CC)CCCCOC(=O)/C(C)=C\C[C@]12OC(C)(C)[C@@H]3C[C@H](C=C4C(=O)c5c(O)c(C/C=C(\C)CCC=C(C)C)c(O)c(CC=C(C)C)c5O[C@@]431)C2=O
1840

Give IC50 for CC(C)=CCC/C(C)=C/Cc1c(O)c(CC=C(C)C)c2c(c1O)C(=O)C1=C[C@@H]3C[C@H]4C(C)(C)O[C@@](C/C=C(/C)C(=O)O)(C3=O)[C@@]14O2
4160

---

# Test system: U-251
# protocol.notes: Cytotoxicity against human U251 cells by MTT assay
# Type: functional, cell-based
recorded.endpoint: IC50

Please report the measured IC50 for CC(C)=CCC/C(C)=C/Cc1c(O)c(CC=C(C)C)c2c(c1O)C(=O)C1=C[C@H]3C[C@H]4C(C)(C)O[C@](C/C=C(/C)C(=O)OCCN5CCCCC5)(C3=O)[C@]14O2 tested on U-251.
4.93 µM

Give the observed IC50 of CC(C)=CCC/C(C)=C/Cc1c(O)c(CC=C(C)C)c2c(c1O)C(=O)C1=C[C@@H]3C[C@H]4C(C)(C)O[C@@](C/C=C(/C)C(=O)OCCN5CCN(CCO)CC5)(C3=O)[C@@]14O2 for U-251.
3.82 µM

Look up and report IC50, with U-251 as system, for CC(C)=CCC/C(C)=C/Cc1c(O)c(CC=C(C)C)c2c(c1O)C(=O)C1=C[C@@H]3C[C@H]4C(C)(C)O[C@@](C/C=C(/C)C(=O)O)(C3=O)[C@@]14O2 [GAMBOGENIC ACID]
3.22 µM
